# Lookup of reported inhibition at 20 µM keyed by entry
biological target: CAT1 (cationic amino acid transporter 1, CAT1/SLC7A1) (Homo sapiens, UniProt P30825); construct: full-length human transporter stably transfected in HEK cells (HEK-CAT1); net uptake against HEK-VC vector control cells; assay: cell-based; set-up: species or system HEK-CAT1 (HEK293 stably transfected); Inhibition of net CAT1-mediated [3H]-ADMA (1 uM) uptake, 2.5 min, scintillation counting, vector control subtracted; settings: HEK293; ADMA 1 uM as substrate; read-out: % Inhibition of ADMA uptake at 20 µM
Sequence (P30825 whole entry): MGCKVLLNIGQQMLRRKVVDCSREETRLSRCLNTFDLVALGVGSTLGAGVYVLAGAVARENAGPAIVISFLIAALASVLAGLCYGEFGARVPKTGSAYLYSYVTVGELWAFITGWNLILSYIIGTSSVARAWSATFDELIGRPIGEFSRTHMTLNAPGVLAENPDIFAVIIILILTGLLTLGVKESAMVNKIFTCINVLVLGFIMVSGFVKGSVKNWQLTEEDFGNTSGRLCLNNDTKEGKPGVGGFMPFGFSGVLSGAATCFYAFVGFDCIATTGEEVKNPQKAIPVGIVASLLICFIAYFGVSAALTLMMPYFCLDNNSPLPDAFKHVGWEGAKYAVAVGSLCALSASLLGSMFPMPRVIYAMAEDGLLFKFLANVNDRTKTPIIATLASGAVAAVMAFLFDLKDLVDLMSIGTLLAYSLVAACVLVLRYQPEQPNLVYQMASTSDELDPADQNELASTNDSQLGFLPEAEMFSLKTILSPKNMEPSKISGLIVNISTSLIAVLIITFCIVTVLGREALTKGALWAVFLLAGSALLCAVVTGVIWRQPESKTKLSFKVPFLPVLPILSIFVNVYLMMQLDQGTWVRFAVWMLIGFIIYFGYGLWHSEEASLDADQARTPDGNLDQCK

# molecule, target.desc, inhibition at 20 µM / %
data = [
    ("COc1ccnc(C[S+]([O-])c2nc3cc(OC(F)F)ccc3[nH]2)c1OC (stereo not shown)", "CAT1 (cationic amino acid transporter 1, CAT1/SLC7A1) (Homo sapiens, UniProt P30825)", -4.5),
    ("CC(C)NCC(O)COc1cccc2ccccc12 (stereo not shown)", "CAT1 (cationic amino acid transporter 1, CAT1/SLC7A1) (Homo sapiens, UniProt P30825)", -27.2),
    ("C[C@@H]1CCC[C@H](C)N1NC(=O)c1ccc(Cl)c(S(N)(=O)=O)c1 [Clopamide]", "CAT1 (cationic amino acid transporter 1, CAT1/SLC7A1) (Homo sapiens, UniProt P30825)", -11.1),
    ("CO/N=C(\\C(=O)N[C@@H]1C(=O)N2C(C(=O)O)=C(COC(N)=O)CS[C@H]12)c1ccco1", "CAT1 (cationic amino acid transporter 1, CAT1/SLC7A1) (Homo sapiens, UniProt P30825)", -7.1),
    ("O=C(O)CCCc1ccc(N(CCCl)CCCl)cc1", "CAT1 (cationic amino acid transporter 1, CAT1/SLC7A1) (Homo sapiens, UniProt P30825)", -5.1),
    ("CN(C)C(=N)NC(=N)N", "CAT1 (cationic amino acid transporter 1, CAT1/SLC7A1) (Homo sapiens, UniProt P30825)", -8),
    ("CC[C@H]1OC(=O)[C@H](C)[C@@H](O[C@H]2C[C@@](C)(OC)[C@@H](O)[C@H](C)O2)[C@H](C)[C@@H](O[C@@H]2O[C@H](C)C[C@H](N(C)C)[C@H]2O)[C@](C)(O)C[C@@H](C)CN(C)[C@H](C)[C@@H](O)[C@]1(C)O", "CAT1 (cationic amino acid transporter 1, CAT1/SLC7A1) (Homo sapiens, UniProt P30825)", 2.8),
    ("NC(=O)N1c2ccccc2C=Cc2ccccc21 [Carbamazepine]", "CAT1 (cationic amino acid transporter 1, CAT1/SLC7A1) (Homo sapiens, UniProt P30825)", 4.8),
    ("CNCC[C@H](Oc1cccc2ccccc12)c1cccs1", "CAT1 (cationic amino acid transporter 1, CAT1/SLC7A1) (Homo sapiens, UniProt P30825)", 1.9),
    ("CC1(C)S[C@@H]2[C@H](NC(=O)[C@H](N)c3ccc(O)cc3)C(=O)N2[C@H]1C(=O)O", "CAT1 (cationic amino acid transporter 1, CAT1/SLC7A1) (Homo sapiens, UniProt P30825)", 2.7),
    ("CC(C)NCC(O)COc1ccc(COCCOC(C)C)cc1 (stereo not shown)", "CAT1 (cationic amino acid transporter 1, CAT1/SLC7A1) (Homo sapiens, UniProt P30825)", -2.8),
    ("C[C@]12C=CC(=O)C=C1CC[C@@H]1[C@@H]2[C@@H](O)C[C@@]2(C)[C@H]1CC[C@]2(O)C(=O)CO", "CAT1 (cationic amino acid transporter 1, CAT1/SLC7A1) (Homo sapiens, UniProt P30825)", -3.3),
    ("CC[C@H](C)C(=O)O[C@H]1C[C@H](O)C=C2C=C[C@H](C)[C@H](CC[C@@H](O)C[C@@H](O)CC(=O)O)[C@H]21", "CAT1 (cationic amino acid transporter 1, CAT1/SLC7A1) (Homo sapiens, UniProt P30825)", -18.5),
    ("CC1(C)S[C@@H]2[C@H](NC(=O)[C@H](N)c3ccccc3)C(=O)N2[C@H]1C(=O)O", "CAT1 (cationic amino acid transporter 1, CAT1/SLC7A1) (Homo sapiens, UniProt P30825)", 20.2),
    ("COc1ccccc1OCCNCC(O)COc1cccc2[nH]c3ccccc3c12 (stereo not shown)", "CAT1 (cationic amino acid transporter 1, CAT1/SLC7A1) (Homo sapiens, UniProt P30825)", -1.1),
    ("C[C@@H](O)[C@H]1C(=O)N2C(C(=O)O)=C(S[C@@H]3CN[C@H](C(=O)Nc4cccc(C(=O)O)c4)C3)[C@H](C)[C@H]12", "CAT1 (cationic amino acid transporter 1, CAT1/SLC7A1) (Homo sapiens, UniProt P30825)", -4.1),
]
